target: human α4β7 integrin (human) (UniProt P13612); assay: inhibition of HUT 78 cell adhesion to murine MAdCAM-1/mCk
Ends that are not written are not given here. * marks the point of attachment. Butanoyl(4-pyren-1-yl) = O=C(CCCc1ccc2ccc3cccc4ccc1c2c34)*; Tpa = triphenylacetyl, O=C(C(c1ccccc1)(c1ccccc1)c1ccccc1)*; Acetyl(1-pyrenyl) = O=C(Cc1ccc2ccc3cccc4ccc1c2c34)*; Phenylacetyl(4-Ph) = O=C(Cc1ccc(-c2ccccc2)cc1)*; Benzoyl(4-heptyl) = CCCCCCCc1ccc(C(=O)*)cc1; Acetyl(1-naphthyl) = O=C(Cc1cccc2ccccc12)*; Diphenylacetyl = O=C(C(c1ccccc1)c1ccccc1)*; cPrCO(2,2,3,3-Me4) = CC1(C)C(C(=O)*)C1(C)C; Ibuprofenoyl = CC(C)Cc1ccc(C(C)C(=O)*)cc1; Hexanoyl(6-Ph) = O=C(CCCCCc1ccccc1)*; PhAc = O=C(Cc1ccccc1)*
reportedProperty: pIC50
The quantity pIC50 is defined as the negative base-10 logarithm of the molar concentration.

Problem: I'd like to know its pIC50. The binder in question is Tpa-LDTSL [Tpa-Leu-Asp-Thr-Ser-Leu]
Result: 6.52

Problem: I'd like to know its pIC50. The binder in question is {Phenylacetyl(4-Ph)}-LDTSL (not fully specified (C-terminus); printed as Bipa-Leu-Asp-Thr-Ser-Leu) [Bipa-Leu-Asp-Thr-Ser-Leu]
Result: 3.31

Problem: I'd like to know its pIC50. The binder in question is {Benzoyl(4-heptyl)}-LDTSL (not fully specified (C-terminus); printed as Hbz-Leu-Asp-Thr-Ser-Leu) [Hbz-Leu-Asp-Thr-Ser-Leu]
Result: 3.40

Problem: I'd like to know its pIC50. The binder in question is PhAc-LDTSL (not fully specified (C-terminus); printed as Pha-Leu-Asp-Thr-Ser-Leu) [Pha-Leu-Asp-Thr-Ser-Leu]
Result: 2.67

Problem: I'd like to know its pIC50. The binder in question is {Hexanoyl(6-Ph)}-LDTSL (not fully specified (C-terminus); printed as Phx-Leu-Asp-Thr-Ser-Leu) [Phx-Leu-Asp-Thr-Ser-Leu]
Result: 3.09

Problem: I'd like to know its pIC50. The binder in question is Diphenylacetyl-LDTSL (not fully specified (C-terminus); printed as Dpa-Leu-Asp-Thr-Ser-Leu) [Dpa-Leu-Asp-Thr-Ser-Leu]
Result: 4.96

Problem: I'd like to know its pIC50. The binder in question is {Acetyl(1-pyrenyl)}-LDTSL (not fully specified (C-terminus); printed as Paa-Leu-Asp-Thr-Ser-Leu) [Paa-Leu-Asp-Thr-Ser-Leu]
Result: 6.30

Problem: I'd like to know its pIC50. The binder in question is {Butanoyl(4-pyren-1-yl)}-LDTSL (not fully specified (C-terminus); printed as Pba-Leu-Asp-Thr-Ser-Leu) [Pba-Leu-Asp-Thr-Ser-Leu (00386-1A)]
Result: 5.55

Problem: I'd like to know its pIC50. The binder in question is {Acetyl(1-naphthyl)}-LDTSL (not fully specified (C-terminus); printed as Npa-Leu-Asp-Thr-Ser-Leu) [Npa-Leu-Asp-Thr-Ser-Leu]
Result: 3.26

Problem: I'd like to know its pIC50. The binder in question is Ac-LDTSL (not fully specified (C-terminus); printed as Ac-Leu-Asp-Thr-Ser-Leu) [Ac-Leu-Asp-Thr-Ser-Leu (00389-1A)]
Result: 3.69

Problem: I'd like to know its pIC50. The binder in question is {cPrCO(2,2,3,3-Me4)}-LDTSL [Tpc-Leu-Asp-Thr-Ser-Leu]
Result: 3.92

Problem: I'd like to know its pIC50. The binder in question is Ibuprofenoyl-LDTSL (not fully specified (C-terminus); printed as Impa-Leu-Asp-Thr-Ser-Leu) [Impa-Leu-Asp-Thr-Ser-Leu]
Result: 2.94
